- measuredTarget: C-C chemokine receptor type 2 (Homo sapiens, UniProt P41597)
- Sequence (P41597 whole entry): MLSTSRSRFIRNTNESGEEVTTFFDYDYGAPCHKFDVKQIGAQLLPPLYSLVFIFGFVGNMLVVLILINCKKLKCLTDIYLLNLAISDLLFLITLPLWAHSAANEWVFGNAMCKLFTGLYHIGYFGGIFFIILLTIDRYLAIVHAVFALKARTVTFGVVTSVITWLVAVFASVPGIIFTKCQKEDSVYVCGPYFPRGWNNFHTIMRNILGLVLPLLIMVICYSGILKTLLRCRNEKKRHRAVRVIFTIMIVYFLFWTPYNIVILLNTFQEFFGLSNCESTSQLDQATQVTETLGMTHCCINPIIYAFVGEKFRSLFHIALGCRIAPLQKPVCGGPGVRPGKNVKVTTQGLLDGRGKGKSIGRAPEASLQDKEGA
- testMethodNotes: Displacement of [125I]-MCP1 from human CCR2 receptor in THP1 cells after 2 hrs by scintillation counting
- Assay type: cell-based, THP-1
- condition: thp-1
pIC50: −log10 of the molar value.
measuredParameter: pIC50

# molecule, measuredParameter, quantitativeReadout
data = [
    ("O=C(CNc1n[nH]c2ccc(C(F)(F)F)cc12)NC1CN([C@H]2CC[C@@H](c3ccccc3)CC2)C1 (stereo in doubt; 5)", "pIC50", 7.92),
]

---

Measured Papp B→A accompanies every entry in the list below.
- testMethodNotes: Apparent permeability of the compound from basolateral to apical side in human Caco2 cell membrane
- Type: ADME, cell-based
- condition: Caco-2
measuredParameter: Papp B→A (×10⁻⁶ cm/s)

# smilesData, quantitativeReadout
rows = [
    ("CCOC(=O)[C@H]1CC[C@@H](N2CC(NC(=O)CNc3nn(C(N)=O)c4ccc(C(F)(F)F)cc34)C2)CC1", 3.5),
    ("NC(=O)n1nc(NCC(=O)NC2CN([C@H]3CC[C@@H](c4ccc5c(c4)OCO5)CC3)C2)c2cc(C(F)(F)F)ccc21", 2.44),
]

---

- measuredTarget: UniProt:P41597
- testMethodNotes: Displacement of [125I]-MCP1 from human CCR2 receptor in THP1 cells after 2 hrs by scintillation counting
- Type: cell-based, THP-1
Mark Satisfied for IC50 under 100 nM, Not satisfied if at or over.

# smilesData, cat
rows = [
    ("C#C[C@H]1CC[C@@H](N2CC(NC(=O)CNc3nn(C)c4ccc(C(F)(F)F)cc34)C2)CC1", "Not satisfied"),
    ("CCOC(=O)[C@H]1CC[C@@H](N2CC(NC(=O)CNc3n[nH]c4ccc(C(F)(F)F)cc34)C2)CC1", "Satisfied"),
    ("CCOC(=O)[C@H]1CC[C@@H](N2CC(NC(=O)CNc3nn(C(N)=O)c4ccc(C(F)(F)F)cc34)C2)CC1", "Satisfied"),
    ("Cn1nc(NCC(=O)NC2CN([C@H]3CC[C@@H](C4CCCCC4)CC3)C2)c2cc(C(F)(F)F)ccc21", "Not satisfied"),
    ("Cc1ccc([C@H]2CC[C@@H](N3CC(NC(=O)CNc4n[nH]c5ccc(C(F)(F)F)cc45)C3)CC2)cn1", "Satisfied"),
    ("CC(C)(C)NC(=O)n1nc(NCC(=O)NC2CN([C@H]3CC[C@@H](c4ccc5c(c4)OCO5)CC3)C2)c2cc(C(F)(F)F)ccc21", "Satisfied"),
    ("Cn1nc(NCC(=O)NC2CN([C@H]3CC[C@@H](C(=O)O)CC3)C2)c2cc(C(F)(F)F)ccc21", "Not satisfied"),
    ("Cn1nc(NCC(=O)NC2CN([C@H]3CC[C@@H](CO)CC3)C2)c2cc(C(F)(F)F)ccc21", "Satisfied"),
]

---

- measuredTarget: C-C chemokine receptor type 2 (Homo sapiens)
- testMethodNotes: Displacement of [125I]-MCP1 from human CCR2 receptor in THP1 cells after 2 hrs by scintillation counting
- Type: cell-based, THP-1
Measured IC50 accompanies every entry in the list below.

# smilesData, uom, IC50
records = [
    ("CCOC(=O)[C@H]1CC[C@@H](N2CC(NC(=O)CNc3nn(CC(F)(F)F)c4ccc(C(F)(F)F)cc34)C2)CC1", "nM", 230),
    ("Cn1nc(NCC(=O)NC2CN([C@H]3CC[C@@H](C(N)=O)CC3)C2)c2cc(C(F)(F)F)ccc21", "nM", 510),
    ("O=C(CSc1n[nH]c2ccc(C(F)(F)F)cc12)NC1CN([C@H]2CC[C@@H](c3ccccc3)CC2)C1", "nM", 290),
    ("O=C(CNc1n[nH]c2ccc(C(F)(F)F)cc12)NC1CN([C@H]2CC[C@@H](n3ccccc3=O)CC2)C1", "nM", 63),
    ("C=CCn1nc(NCC(=O)NC2CN([C@H]3CC[C@@H](C(=O)OCC)CC3)C2)c2cc(C(F)(F)F)ccc21", "nM", 22),
    ("O=C(CNc1nn(CCO)c2ccc(C(F)(F)F)cc12)NC1CN([C@H]2CC[C@@H](c3nccs3)CC2)C1", "nM", 29),
    ("CCOC[C@H]1CC[C@@H](N2CC(NC(=O)CNc3nn(C)c4ccc(C(F)(F)F)cc34)C2)CC1", "nM", 27),
]
